All figures here come from ChEMBL document CHEMBL3228010.

Please respond with reported Rm for every item in the list.
- protocol: Lipophilic-hydrophilic balance, Rm of the compound by partition chromatography
- Assay type: physicochemical

Record Cc1cc(Nc2ccc(C(=O)Nc3ccc(Nc4cc[n+](C)cc4)cc3)c(N)c2)c2cc(N)ccc2[n+]1C.[I-].[I-] . Reported Rm: 0.16

// field: Rm; key: CC[n+]1cccc2ccc(NC(=O)c3ccc(NC(=O)c4ccc(C(=O)Nc5ccc6ccc[n+](CC)c6c5)cc4)cc3)cc21.Cc1ccc(S(=O)(=O)[O-])cc1.Cc1ccc(S(=O)(=O)[O-])cc1 ; value = -0.4

The value of Rm measured for the molecule C[n+]1ccc(Nc2ccc(NC(=O)c3ccc(C(=O)Nc4ccc(C(=O)Nc5ccc[n+](C)c5)cc4)cc3)cc2)cc1.[I-].[I-] turned out to be -0.12

* * *

- Test system: Mus musculus
- protocol: Toxicity in ip dosed C3H X DBA2 F1 hybrid mouse […] with mouse L1210 cells on day 0 and dosed once daily on days 1 to 5 measured after 50 days
- Type: organism-based
- recorded-conditions: in vivo, 1200 h
// thresholds for LD10 classes: L = under 8 mg/kg, M = from 8 mg/kg up to 80 mg/kg, H = 80 mg/kg and over

## Task Sort into band: C[n+]1ccc(Nc2ccc(/C=C/c3ccc(Nc4cc[n+](C)c5ccc(N)cc45)cc3)cc2)cc1.[Br-].[Br-]
## Result M

## Task Please let me know in which category the item CC[n+]1ccc(Nc2ccc(NC(=O)c3ccc(C(=O)Nc4ccc(Nc5cc[n+](CC)cc5)cc4)cc3)cc2)cc1.Cc1ccc(S(=O)(=O)[O-])cc1.Cc1ccc(S(=O)(=O)[O-])cc1 belongs.
## Result L

## Task Lab note: which band did C[n+]1cccc(-c2ccc(NC(=O)/C=C/c3ccc(C(=O)Nc4ccc(-c5ccc(-c6ccc(-c7ccc[n+](C)c7)cc6)cc5)cc4)cc3)cc2)c1.Cc1ccc(S(=O)(=O)[O-])cc1.Cc1ccc(S(=O)(=O)[O-])cc1 land in?
## Result H

## Task Which of the defined bands does the recorded LD10 of CC[n+]1ccc(Nc2ccc(NC(=O)/C=C/c3ccc(C(=O)Nc4ccc(Nc5cc[n+](CC)cc5)c(N)c4)cc3)cc2N)cc1.[Br-].[Br-] sit within?
## Result L

## Task Form: Item = C[n+]1ccc(Nc2ccc(C(=O)Nc3ccc(Nc4cc[n+](C)c5ccccc45)cc3)cc2)cc1.Cc1ccc(S(=O)(=O)[O-])cc1.Cc1ccc(S(=O)(=O)[O-])cc1 ; Class = ?
## Result L

## Task Kindly state the category for this compound: CC[n+]1cccc(NC(=O)c2ccc(NC(=O)c3ccc(C(=O)Nc4ccc(C(=O)Nc5ccc[n+](CC)c5)cc4OC)cc3)c(OC)c2)c1.Cc1ccc(S(=O)(=O)[O-])cc1.Cc1ccc(S(=O)(=O)[O-])cc1
## Result M

## Task Classify this compound: CC[n+]1cc(-c2ccc(NC(=O)c3ccc(Nc4cc[n+](CC)c5ccc(N)cc45)cc3N)cc2)c(N)nc1N.Cc1ccc(S(=O)(=O)[O-])cc1.Cc1ccc(S(=O)(=O)[O-])cc1
## Result H

## Task Lab note: sort Cc1cc(Nc2ccc(NC(=O)c3ccc(C(=O)Nc4ccc(Nc5cc(C)[n+](C)c(N)n5)cc4)cc3)cc2)nc(N)[n+]1C.Cc1ccc(S(=O)(=O)[O-])cc1.Cc1ccc(S(=O)(=O)[O-])cc1 into the matching LD10 band.
## Result H

## Task Field: class (LD10) — entry: C[n+]1ccc(-c2ccc(-c3ccc(-c4ccc(NC(=O)c5ccc(C(=O)Nc6ccc(-c7ccc(-c8ccc(-c9cc[n+](C)cc9)cc8)cc7)cc6)cc5)cc4)cc3)cc2)cc1.Cc1ccc(S(=O)(=O)[O-])cc1.Cc1ccc(S(=O)(=O)[O-])cc1
## Result H

## Task Hi, small favor: classify C[n+]1ccc(Nc2ccc(NC(=O)c3ccc(C(=O)Nc4ccc(Nc5cc[n+](C)cc5)cc4)cc3)cc2)cc1.Cc1ccc(S(=O)(=O)[O-])cc1.Cc1ccc(S(=O)(=O)[O-])cc1 by its LD10 when you get a moment.
## Result L
